system: HL-60; assay: NCI tumour cell line growth inhibition, 48 h
Active and inactive are the calls of the source. Cut-off read from the data, not from the text of the source: active = GI50 up to about 1.1 µM and inactive = higher.
Labels: active, inactive

Compound | Assigned category
CN(C)CCCn1c2ccccc2c2cnccc21 | inactive
CC(C)(CN1CCCCC1)C(=O)/C=C/c1ccc(/C=C/C(=O)C(C)(C)CN2CCCCC2)cc1 | active
CCOC(=O)CC[C@H](NC(=O)c1nc[nH]c1[N+](=O)[O-])C(=O)OCC | inactive
COC(=O)C1=C(C)NC(C)=C(C(=O)OC)C1c1ccc(NO)cc1 | inactive
O=c1nc(NC(c2ccccc2)(c2ccccc2)c2ccccc2)ccn1CCNCCn1ccc(NC(c2ccccc2)(c2ccccc2)c2ccccc2)nc1=O | inactive
O=C1C(CN2CCCCC2)CCC1CN1CCCCC1 (centres undefined) | inactive
Oc1cc(-c2cccc(OC(F)(F)F)c2)nc2ccc(N3CCCC3)cc12 | active
O=C1Nc2cc([N+](=O)[O-])ccc2N/C1=C/C(=O)c1ccc(Cl)cc1 | inactive
O=C1/C(=C/c2ccccc2Cl)COc2ccccc21 | inactive
